Origin of the recorded values: ChEMBL document CHEMBL1201862

Could you please report measured GI50 for the items listed next?
test system: OVCAR-8; assay: NCI tumour cell line growth inhibition, 48 h
Active and inactive are the calls of the source. Cut-off read from the data, not from the text of the source: active = GI50 up to about 1.1 µM and inactive = higher.

Before answering, review these 5 worked examples.
CSc1c(C)c(C)nn1-c1ccccc1 | > 100 µM (inactive)
CC(C)(C)N/N=N/c1cn(C2OC(CO)C(O)C2O)c(=O)[nH]c1=O (configuration not stated) | > 100 µM (inactive)
COc1ccc2c3c1C(=O)CCCC3CO2 (configuration not stated) | > 100 µM (inactive)
CCOC(=O)CN1CCNCCN(CC(=O)OCC)CCNCC1 | > 100 µM (inactive)
O=C(Nc1nccs1)c1cc(C2=CC=CC([N+](=O)[O-])C=C2)nc(S)n1 (configuration not stated) | > 100 µM (inactive)

// for each compound below, give its GI50
1. C[n+]1ccccc1/C=C/c1ccc2c(c1)OCO2
2. Cc1cc(OP2(=O)NCc3ncccc3O2)ccc1Cl (configuration not stated)
3. N#CC12C(=O)NC(=O)C1(C#N)C1C=CC2CC1 (configuration not stated)
4. O=C1/C(=C/c2ccco2)N=C(c2ccccc2)N1c1cc2cc(Sc3ccccc3)ccc2[nH]1
5. COC(=O)Cc1ccc2c(cnn2-c2ccccc2)c1OC
6. CC1=C([S+]([O-])c2ccc(C)cc2)CCC2(CCCCO2)O1 (configuration not stated)

1: > 10 µM (inactive); 2: > 100 µM (inactive); 3: > 100 µM (inactive); 4: 22.8 µM (inactive); 5: > 10 µM (inactive); 6: > 100 µM (inactive)

====

system: HCT-116; experiment: NCI tumour cell line growth inhibition, 48 h
The source made the active and inactive calls. Rule as the data show it: active = GI50 up to about 1.1 µM and inactive = higher.
Could you please report measured GI50 for the items listed next?

Before answering, review these 3 worked examples.
FC(F)(Sc1ccccn1)c1nc2ccccc2o1 | 62.2 µM (inactive)
CCOC(=O)/C=C(/C(=O)OCC)n1ccc(=O)n(Cc2cn(COCCOC(C)=O)nn2)c1=O | 31.6 µM (inactive)
Cc1c(-c2nc(N)nc(C3CC3)c2C)nc(N)nc1C1CC1 | > 100 µM (inactive)

// for each molecule below, give its GI50
1. COc1ccc(-c2c(C#N)c(NC(=S)NC(=O)c3ccccc3)nc3c2CCCC3)cc1OC
2. Brc1c(C#CCC(c2ccccc2)(c2ccccc2)c2ccccc2)ccc(C#CCC(c2ccccc2)(c2ccccc2)c2ccccc2)c1Br
3. C#Cc1cc(Br)c(OC(=O)C(C)(C)C)c(-c2cc(C#C)cc(Br)c2OC(=O)C(C)(C)C)c1
4. O=[N+]([O-])c1ccc2nc(O)n[n+]([O-])c2c1
5. O=[N+]([O-])c1ccc(-c2ccc(C3=Nn4c(nnc4-c4ccc(Cl)cc4)SC3)o2)cc1
6. O=c1cc(-c2ccc(O)c(O)c2)oc2cc(O[C@H]3O[C@H](CO)[C@@H](O)[C@H](O)[C@H]3O)cc(O)c12

> 100 µM (inactive)
> 100 µM (inactive)
21 µM (inactive)
> 100 µM (inactive)
45 µM (inactive)
28.8 µM (inactive)

====

Could you please report measured GI50 for the items listed next?
tested on: NCI/ADR-RES; experiment: NCI tumour cell line growth inhibition, 48 h
Activity calls are given as the source filed them. Rule as the data show it: active = GI50 up to about 1.1 µM and inactive = higher.

CNC1NC(=O)c2ccccc2N1Cc1ccc(F)cc1 (centres undefined) | > 100 µM (inactive)
CN1CCN(Cn2nc(COc3ccc(Cl)cc3)n(/N=C/c3ccc(-c4ccc(Cl)cc4Cl)o3)c2=S)CC1 | 20.5 µM (inactive)
COc1ccc(N2CCOCC2)cc1 | > 100 µM (inactive)

// for each molecule below, give its GI50
1. CCC1CC2CN3CCc4c([nH]c5c(-c6c(OC)ccc7c8c([nH]c67)[C@]6(C(=O)OC)CC7CC(CC)C6N(CC8)C7)c(O)ccc45)[C@](C(=O)OC)(C2)C13 (some centres undefined)
2. Nc1ccc(-c2nc3ccc(F)cc3s2)cc1I
3. CC(C(N)C(=O)NC(C(=O)O)C1OC(n2ccc(=O)[nH]c2=O)C(O)C1O)C(O)c1ccc(O)cn1 (centres undefined)
4. CN1C(=O)C(c2c[nH]c3ccccc23)N(C)C(=O)C1c1c[nH]c2ccccc12 (centres undefined)
5. CCOc1cc(NC(C)=O)ccc1C(=O)NN1C(=O)CSC1c1ccccc1 (centres undefined)
6. COC1(OC)N=C(N)C2(C#N)C(c3ccccc3)NC3=C(CCC3)C12C#N (centres undefined)

20.4 µM (inactive)
> 31 µM (inactive)
> 100 µM (inactive)
> 100 µM (inactive)
35.7 µM (inactive)
> 100 µM (inactive)

====

tested on: NCI/ADR-RES; assay: NCI tumour cell line growth inhibition, 48 h
Calls of active or inactive are those of the source. Rule as the data show it: active = GI50 up to about 1.1 µM and inactive = higher.
Entry note: the call must match one of yes (active), no (inactive)

Below are worked cases with known answers.
CC(=O)Nc1ccc2nc(-c3ccccn3)c(-c3ccccn3)nc2c1 | no
CC(C)/C(Cl)=N\OC(=O)Nc1ccc(F)c([N+](=O)[O-])c1 | no
CCOC(=O)C#Cc1ccc([N+](=O)[O-])cc1 | no
O=C1c2cc([N+](=O)[O-])ccc2NC2C(O)c3ccccc3N12 (stereo not given) | no
Cc1c(NC(=S)Nc2ccc([N+](=O)[O-])cc2)c(=O)n(-c2ccccc2)n1C | no
COc1cc(C(SCc2ccccc2)SCc2ccccc2)ccc1O | no
N/C(=N\N=C\c1nc2ccccc2o1)c1cnccn1 | no
CC1=C(CO)C2=C(C)C3(CC3)[C@@](C)(O)C(=O)C2=C1 | yes

Assay result, entry `COc1ccc(OC)c2cc(Cc3ccc(N(C)C)cc3)c(=O)c(Cc3ccc(N(C)C)cc3)cc12` — outcome?
no

Assay result, entry `CCOC(=O)c1c(SC(=O)c2ccc(Cl)cc2)n(-c2ccccc2)c(=S)n(-c2ccccc2)c1=O` — outcome?
no

====

system: LXFL 529; experiment: NCI tumour cell line growth inhibition, 48 h
Activity calls are given as the source filed them. Cut-off read from the data, not from the text of the source: active = GI50 up to about 1.1 µM and inactive = higher.
Could you please report measured GI50 for the items listed next?

Before answering, review these 2 worked examples.
O=C(Nc1c(O)[nH]c(=S)[nH]c1=O)c1ccccn1 | > 100 µM (inactive)
C/C=C/C1(C)/C(=N\O)C(C)(CCC)C(=O)N1O (stereo not given) | > 100 µM (inactive)

// for each molecule below, give its GI50
1. CNCCCCN(C)/[N+]([O-])=N\O
2. N#CC1CC2(CCN1C(=O)c1ccccc1)OCCO2 (stereo not given)
3. C#Cc1cc(CN(CC(=O)OC(C)(C)C)CC(=O)OC(C)(C)C)nc(CN(CC(=O)OC(C)(C)C)CC(=O)OC(C)(C)C)c1
4. CN(C)c1ccc(/C=c2/sc3nc(=O)c(-c4ccccc4NC(=O)C(F)(F)F)nn3c2=O)cc1
5. O=C(Nc1ccc(Cl)c(Cl)c1)C(=O)C(C(=O)c1ccccc1-c1ccccc1)C1OC(=O)c2ccccc21 (stereo not given)
6. CCN(CC)c1ccc(C(=O)c2ccccc2C(=O)O)c(O)c1

["> 100 µM (inactive)", "> 100 µM (inactive)", "3.46 µM (inactive)", "> 100 µM (inactive)", "8.81 µM (inactive)", "> 100 µM (inactive)"]

// for each molecule below, give its GI50
1. CC1=C(NC(=O)/C(=N/NC(=S)NN)C2C(=O)CC(C)(C)CC2=O)C(=O)c2ccccc2C1=O
2. O=c1ncccn1C1C=C(CO)C(O)C1O (stereo not given)

11.4 µM (inactive)
> 50 µM (inactive)

====

tested on: ACHN; assay: NCI tumour cell line growth inhibition, 48 h
Active and inactive are the calls of the source. No stated cut-off is given here; in the data, active = GI50 up to about 1.1 µM and inactive = higher.
Could you please report measured GI50 for the items listed next?

Before answering, review these 5 worked examples.
N#Cc1ccccc1-c1nc2c3c(c(N)ccc3n1)C(=O)c1ccccc1-2 | 22.2 µM (inactive)
C=CCOCn1ccc(=O)[nH]c1=O | > 100 µM (inactive)
CCN(Cc1cc(Cl)cc(C)c1O)Cc1c(O)ccc2ccccc12 | 17.3 µM (inactive)
O=S(=O)(O)c1ccc(O)c2ncc(Cl)cc12 | > 100 µM (inactive)
CN1C(=O)NC(=O)/C(=C\Nc2ncccn2)C1=O | > 100 µM (inactive)

Continue with the molecule presented below.
Which GI50 is reported for this molecule? `CCCCCC(=O)n1[nH]c(=O)n(-c2ccc(OC)cc2)c1=O`
> 100 µM (inactive)

====

test system: U-251; experiment: NCI tumour cell line growth inhibition, 48 h
The source made the active and inactive calls. No stated cut-off is given here; in the data, active = GI50 up to about 1.1 µM and inactive = higher.
Could you please report measured GI50 for the items listed next?

Before answering, review these 5 worked examples.
O=C(Nc1sccc1S(=O)(=O)c1ccccc1)c1ccccc1 | > 100 µM (inactive)
S=C(Nc1ccccc1)N1N=C2c3ccccc3CC[C@H]2[C@@H]1c1ccccc1 | 7.59 µM (inactive)
Fc1ccc(/N=C/C=C/Nc2ccc(F)cc2)cc1 | 7.41 µM (inactive)
CC(C)CCn1nc(N)c2nc3ccccc3nc21 | > 100 µM (inactive)
NS(=O)(=O)c1ccc(Nc2c3ccccc3nc3c(C(=O)NCCO)cccc23)cc1 | 0.0728 µM (active)

// for each molecule below, give its GI50
1. CC[C@H](C)[C@H](NC(=O)[C@@]1(O)[C@H](O)[C@]2(CC)C=CCN3CC[C@@]4(c5cc(Br)c(OC)cc5N(C)[C@@H]14)[C@@H]32)C(=O)OC
2. COc1ccc(C2CCC(Cl)(OC)CC2C=O)cc1 (stereo not given)
3. Clc1ccc(C(OCn2ccnc2)c2nc3ccccc3[nH]2)c(Cl)c1 (stereo not given)
4. CCN(CC)c1ccc2cc(C(=O)Nc3ccc(C)cc3)c(=N)oc2c1
5. CCCCCCCCCCCCC1N=C(N)N2CCCC2=C1C(=O)OC (stereo not given)

27.8 µM (inactive)
43.9 µM (inactive)
31.4 µM (inactive)
> 100 µM (inactive)
1.65 µM (inactive)
